# System: MCF10A
# protocol: percent viability (nuclei count relative to siNT); higher = more viable cells
# condition: 20 nM; 72 h
API: label(entry) gives Yes if the entry's percent viability is strictly smaller than 70%; on equality or larger values it gives No.

Task: Consider the sequence CAAAGUGCCUCCCUUUAGAGUG [hsa-miR-519d] . Is its percent viability strictly less than 70%?
Output: No

Task: Consider the sequence UGAAGCGCCUGUGCUCUGCCGAGA [hsa-miR-7706] . Is its percent viability strictly less than 70%?
Output: Yes

Task: Consider the sequence CCAGGGGGAUGGGCGAGCUUGGG [hsa-miR-6798-5p] . Is its percent viability strictly less than 70%?
Output: No

Task: Consider the sequence CAAAAAUCUCAAUUACUUUUGC [hsa-miR-548c-3p] . Is its percent viability strictly less than 70%?
Output: No

Task: Consider the sequence UCCCUGUCCUCCAGGAGCUCACG [hsa-miR-339-5p] . Is its percent viability strictly less than 70%?
Output: Yes

Task: Consider the sequence GGGACCAUCCUGCCUGCUGUGG [hsa-miR-3619-3p] . Is its percent viability strictly less than 70%?
Output: Yes

Task: Consider the sequence UGCUUCCUUUCAGAGGGU [hsa-miR-516a-3p] . Is its percent viability strictly less than 70%?
Output: No

Task: Consider the sequence UUGUGGAUCUCAAGGAUGUGCU [hsa-miR-4752] . Is its percent viability strictly less than 70%?
Output: Yes

Task: Consider the sequence CUCAGUGACUCAUGUGC [hsa-miR-4276] . Is its percent viability strictly less than 70%?
Output: No

Task: Consider the sequence GCCCGCGUGUGGAGCCAGGUGU [hsa-miR-1471] . Is its percent viability strictly less than 70%?
Output: No

Task: Consider the sequence UUGAUCUCGGAAGCUAAGC [hsa-miR-7641] . Is its percent viability strictly less than 70%?
Output: No

Task: Consider the sequence UGGAUGACAGUGGAGGCCU [hsa-miR-6744-5p] . Is its percent viability strictly less than 70%?
Output: Yes

Task: Consider the sequence UCUGUCAUUUCUUUAGGCCAAUA [hsa-miR-215-3p] . Is its percent viability strictly less than 70%?
Output: Yes

Task: Consider the sequence UCUGAGGUGGAACAGCAGC [hsa-miR-7162-3p] . Is its percent viability strictly less than 70%?
Output: Yes

Task: Consider the sequence GCAGGACAGGCAGAAGUGGAU [hsa-miR-4436a] . Is its percent viability strictly less than 70%?
Output: No

Task: Consider the sequence AGGAAACAGGGACCCA [hsa-miR-4261] . Is its percent viability strictly less than 70%?
Output: Yes

Task: Consider the sequence GGCUUGCAUGGGGGACUGG [hsa-miR-4327] . Is its percent viability strictly less than 70%?
Output: Yes

Task: Consider the sequence AAGGUUUGGAUAGAUGCAAUA [hsa-miR-4464] . Is its percent viability strictly less than 70%?
Output: Yes

Task: Consider the sequence UCAAAACUGAGGGGCAUUUUCU [hsa-miR-1323] . Is its percent viability strictly less than 70%?
Output: Yes

Task: Consider the sequence GAAUAUGGGUAUAUUAGUUUGG [hsa-miR-5583-3p] . Is its percent viability strictly less than 70%?
Output: Yes

Task: Consider the sequence UGGGCCAGGGAGCAGCUGGUGGG [hsa-miR-4640-5p] . Is its percent viability strictly less than 70%?
Output: Yes

Task: Consider the sequence AACUCGUGUUCAAAGCCUUUAG [hsa-miR-4636] . Is its percent viability strictly less than 70%?
Output: Yes

Task: Consider the sequence UGGGGGUGGUCUCUAGCCAAGG [hsa-miR-6842-5p] . Is its percent viability strictly less than 70%?
Output: Yes

Task: Consider the sequence GAUUUCAGUGGAGUGAAGUUC [hsa-miR-205-3p] . Is its percent viability strictly less than 70%?
Output: No

Task: Consider the sequence UUCCAGCCCUUCUAAUGGUAGG [hsa-miR-6512-3p] . Is its percent viability strictly less than 70%?
Output: Yes

Task: Consider the sequence CCAGGAGGCGGAGGAGGUGGAG [hsa-miR-4459] . Is its percent viability strictly less than 70%?
Output: Yes

Task: Consider the sequence UAACAGUCUCCAGUCACGGCC [hsa-miR-212-3p] . Is its percent viability strictly less than 70%?
Output: No

Task: Consider the sequence UGCAACGAACCUGAGCCACUGA [hsa-miR-891a] . Is its percent viability strictly less than 70%?
Output: Yes

Task: Consider the sequence UAUAGAGAGCAGGAAGAUUAAUGU [hsa-miR-3976] . Is its percent viability strictly less than 70%?
Output: No

Task: Consider the sequence UUAGCCAAUUGUCCAUCUUUAG [hsa-miR-4662a-5p] . Is its percent viability strictly less than 70%?
Output: Yes

Task: Consider the sequence GCCCUCCGCCCGUGCACCCCG [hsa-miR-1470] . Is its percent viability strictly less than 70%?
Output: No

Task: Consider the sequence UGGUUGACCAUAGAACAUGCGC [hsa-miR-380-5p] . Is its percent viability strictly less than 70%?
Output: Yes

Task: Consider the sequence CUGAAUAGCUGGGACUACAGGU [hsa-miR-5585-3p] . Is its percent viability strictly less than 70%?
Output: Yes

Task: Consider the sequence UGCCUCUUUUCCACGGCCUCAG [hsa-miR-6781-3p] . Is its percent viability strictly less than 70%?
Output: Yes

Task: Consider the sequence CUGGCGGCUGUGUCUUCACAG [hsa-miR-6770-3p] . Is its percent viability strictly less than 70%?
Output: Yes

Task: Consider the sequence CAGGGCCUCACUGUAUCGCCCA [hsa-miR-4512] . Is its percent viability strictly less than 70%?
Output: Yes

Task: Consider the sequence AAGGUAUUGUUCAGACUUAUGA [hsa-miR-4678] . Is its percent viability strictly less than 70%?
Output: Yes

Task: Consider the sequence CGUGGAUAUUCCUUCUAUGUUU [hsa-miR-376b-5p] . Is its percent viability strictly less than 70%?
Output: Yes

Task: Consider the sequence CUGGGAGGUGUGAUAUUGUGGU [hsa-miR-3689b-3p] . Is its percent viability strictly less than 70%?
Output: Yes

Task: Consider the sequence AUGUGAUUGACGGCUGACUCCA [hsa-miR-8070] . Is its percent viability strictly less than 70%?
Output: Yes

Task: Consider the sequence UCUACAGUGCACGUGUCUCCAGU [hsa-miR-139-5p] . Is its percent viability strictly less than 70%?
Output: Yes

Task: Consider the sequence UUCGGUAUACUUUGUGAAUUGG [hsa-miR-4798-5p] . Is its percent viability strictly less than 70%?
Output: No

Task: Consider the sequence UUGUCUCUUGUUCCUCACACAG [hsa-miR-6818-3p] . Is its percent viability strictly less than 70%?
Output: Yes

Task: Consider the sequence CCUGCGUGUUUUCUGUCCAA [hsa-miR-4520a-5p] . Is its percent viability strictly less than 70%?
Output: Yes

Task: Consider the sequence UACUCCAGAGGGCGUCACUCAUG [hsa-miR-508-5p] . Is its percent viability strictly less than 70%?
Output: Yes

Task: Consider the sequence UUGGGAUGGUAGGACCAGAGGGG [hsa-miR-6728-5p] . Is its percent viability strictly less than 70%?
Output: Yes
